Entry source: ChEMBL document CHEMBL5291721

# Tested System: Alpha-1A adrenergic receptor (Homo sapiens, UniProt P35348); further: assay procedure not described here
# Sequence (P35348 whole entry): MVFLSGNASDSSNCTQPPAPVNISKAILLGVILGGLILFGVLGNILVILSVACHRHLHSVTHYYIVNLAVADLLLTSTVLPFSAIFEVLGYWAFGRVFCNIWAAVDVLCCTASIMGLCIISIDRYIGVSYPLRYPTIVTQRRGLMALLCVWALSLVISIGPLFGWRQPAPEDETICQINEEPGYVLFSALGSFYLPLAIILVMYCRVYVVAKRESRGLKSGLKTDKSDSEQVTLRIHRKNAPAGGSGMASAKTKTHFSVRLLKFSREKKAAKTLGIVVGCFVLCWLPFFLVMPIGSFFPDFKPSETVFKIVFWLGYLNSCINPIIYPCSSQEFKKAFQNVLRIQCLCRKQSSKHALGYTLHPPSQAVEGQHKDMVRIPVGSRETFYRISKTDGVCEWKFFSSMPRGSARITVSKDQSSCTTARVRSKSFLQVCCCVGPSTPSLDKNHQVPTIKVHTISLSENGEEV
# Format: functional, cell-based
Reported AC50 is given for each of the following compounds.
Parameter: AC50

1) CCOc1ccc(/C=C2\NCCc3cc(OCC)c(OCC)cc32)cc1OCC	> 10 µM
2) O=C1CN=C(c2ccccc2)c2c(sc3c2CCCC3)N1	12.4 µM
3) CC/C=C\C/C=C\C/C=C\C/C=C\C/C=C\CCCC(=O)O	> 30 µM
4) CC(=O)OC(C)C[N+](C)(C)C (stereo unspecified)	> 30 µM
5) CCOC(=O)c1ccc(O)cc1	> 30 µM
6) CC[C@@]1(O)C[C@H](O[C@H]2C[C@H](N(C)C)[C@H](O[C@H]3C[C@H](O)[C@H](O[C@H]4CCC(=O)[C@H](C)O4)[C@H](C)O3)[C@H](C)O2)c2c(cc3c(c2O)C(=O)c2c(O)cccc2C3=O)[C@H]1C(=O)OC	> 30 µM
7) Oc1ncnc2[nH]ncc12	> 30 µM
8) O=C1CCC(N2C(=O)c3ccccc3C2=O)C(=O)N1 (stereo unspecified) [THALIDOMIDE]	> 30 µM
9) Nc1nc(-n2cc(C(=O)O)c(=O)c3cc(F)c(N4CC(O)C4)c(Cl)c32)c(F)cc1F	> 30 µM
10) C[N+]1(C)[C@@H]2C[C@@H](OC(=O)[C@H](CO)c3ccccc3)C[C@H]1[C@@H]1O[C@@H]12	> 30 µM
11) COc1ccc(-c2cc(=O)c3c(O)cc(O[C@@H]4O[C@H](CO[C@@H]5O[C@@H](C)[C@H](O)[C@@H](O)[C@H]5O)[C@@H](O)[C@H](O)[C@H]4O)cc3o2)cc1O	> 30 µM
12) C[C@H]1O[C@H](O[C@H]2[C@H](O)[C@@H](O)[C@@H](O[C@H]3[C@H](O)[C@@H](O)C(O)O[C@@H]3CO)O[C@@H]2CO)[C@H](O)[C@@H](O)[C@@H]1N[C@H]1C=C(CO)[C@@H](O)[C@H](O)[C@H]1O (stereo partly specified)	> 30 µM
13) C[C@@H]1C[C@H]2[C@@H]3C[C@H](F)C4=CC(=O)C(Cl)=C[C@]4(C)[C@@]3(F)[C@@H](O)C[C@]2(C)[C@@]1(O)C(=O)CO	23.3 µM
14) CS(=O)(=O)c1ccc([C@@H](O)[C@@H](CO)NC(=O)C(Cl)Cl)cc1	> 30 µM
15) CCCCN(CCCC)CCCOC(=O)c1ccc(N)cc1	> 30 µM
16) O=C1CC[C@@]2(O)[C@H]3Cc4ccc(O)c5c4[C@@]2(CCN3CC2CC2)[C@H]1O5 [NALTREXONE]	> 30 µM
